Tested on: TK-10 renal
run_description: NCI tumour cell line growth inhibition, 48 h
Where a SMILES comes first, the peptide text is derived from it. The star is where a group is joined. Boc = CC(C)(C)OC(=O)*; OBn = c1ccc(CO*)cc1
This listing pairs compounds with measured TGI.
readout_name: TGI (µM)

{"compound": "Cc1cc(C)nc(/C(=N\\NC(N)=O)C(=O)Nc2nc3ccc(C)cc3s2)c1", "cmp": ">", "test_result": 100}
{"compound": "CCOC(=O)c1c(C)n(Cc2ccc(Cl)cc2Cl)c2c1cc1oc(=O)c(=O)n3cnc2c13", "cmp": "=", "test_result": 33}
{"compound": "Cc1nc2n(c1/C=C1/C(=O)Nc3ccccc31)CCS2", "cmp": ">", "test_result": 100}
{"compound": "CN1CN(c2ccccc2)C2(CCN(CCCCCCF)CC2)C1=O", "cmp": ">", "test_result": 100}
{"compound": "CC(C)CC(NC(=O)OC(C)(C)C)C(=O)NC(CC(=O)OCc1ccccc1)C(=O)OCc1ccccc1 (stereo not drawn) (Boc-Leu-Asp(OBn)-OBn; configuration not given here)", "cmp": "=", "test_result": 60.9}
{"compound": "COc1cc2ncnc(-n3ncc4cc(NC(=O)Nc5ccc(Cl)c(Cl)c5)ccc43)c2cc1OC", "cmp": "=", "test_result": 6.45}
{"compound": "CCOC(=O)CN(Cn1cncn1)Cn1cncn1", "cmp": ">", "test_result": 100}
{"compound": "CCN1CCN(Cc2ccc(NC(=O)Nc3nc4ccc(Oc5ccnc(C(=O)NC)c5)cc4s3)cc2C(F)(F)F)CC1", "cmp": "=", "test_result": 4.54}
{"compound": "CCc1cccc(C)c1N1C(=O)C(=O)C(c2nc3ccccc3o2)C(=O)C1=O", "cmp": ">", "test_result": 100}
{"compound": "Cc1ccc(NC2=NCCO2)c2c1CCC2", "cmp": ">", "test_result": 100}

====

System: RPMI-8226 leukemia
run_description: NCI tumour cell line growth inhibition, 48 h

{"compound": "CC(=O)OC1C2CCC3C(C)(O)C4CC(O)C(C)(C)C4(O)C(O)CC13CC2(C)O (stereo not drawn)", "TGI": "> 100 µM"}
{"compound": "COC(=O)C12CC(NC(=O)c3csc([C@@H](C[C@H](C(C)C)N(C)C(=O)[C@@H](NC(=O)[C@H]4CCCCN4C)C4CC4)OC(C)=O)n3)(C1)C2", "TGI": "> 16.7 µM"}
{"compound": "NNc1cnn(-c2ccccc2)c(=O)c1Cl", "TGI": "> 100 µM"}
{"compound": "C=C/C(C)=C/C[C@]1(C)[C@H](C)[C@@H](OC(=O)CCC)[C@H](O)[C@@]23C(=C[C@H](OC)C[C@@H]12)[C@@H](OC(=O)CCC)O[C@H]3OC(C)=O", "TGI": "1.65 µM"}
{"compound": "Cc1cc(C)nc(/C(=N\\NC(N)=O)C(=O)Nc2nc3ccc(C)cc3s2)c1", "TGI": "> 69.6 µM"}
{"compound": "CCc1ccccc1NC(=O)/C=C/c1ccccc1", "TGI": "> 100 µM"}
{"compound": "COc1ccc(-c2cc(C(=O)Nc3cc(C(F)(F)F)cc(C(F)(F)F)c3)c3ccccc3n2)cc1", "TGI": "> 100 µM"}
{"compound": "CCC(COC(=O)CC[C@@H](NC(=O)C(C)NC(=O)C(C)OC1C(O)C(CO)OC(OCc2ccccc2)C1NC(C)=O)C(N)=O)NC1c2ccccc2Nc2cccc([N+](=O)[O-])c21 (stereo partly drawn)", "TGI": "> 100 µM"}
